Tested on: S. aureus RN4220
protocol.text: growth inhibition call (relative growth <= 0.2)
measurement.parameters: 50 µM
Hit rate of the full screen: of about 39,000 compounds, about 500 (1.3%) were called active. For the sample, actives were picked, then their nearest neighbours and some compounds at random.
The reply should be one of these categories: true (active), false (inactive)

Consider the following illustrative entries.
[
  {
    "molecule.smiles": "C[C@H]1CN([C@@H](C)CO)C(=O)CCCn2cc(nn2)CO[C@H]1CN(C)C(=O)Nc1ccc(C(F)(F)F)cc1",
    "target.system": "S. aureus RN4220",
    "category": "false"
  },
  {
    "molecule.smiles": "C[C@H]1CN([C@@H](C)CO)C(=O)CCCn2cc(nn2)CO[C@@H]1CN(C)C(=O)Nc1ccc(C(F)(F)F)cc1",
    "target.system": "S. aureus RN4220",
    "category": "false"
  },
  {
    "molecule.smiles": "C[C@H]1CN([C@@H](C)CO)C(=O)CCCn2nncc2CO[C@H]1CN(C)C(=O)Nc1ccc(C(F)(F)F)cc1",
    "target.system": "S. aureus RN4220",
    "category": "true"
  }
]

Note: attention shifts to another entry.
Record lookup: outcome of this test for "C[C@@H]1CN([C@H](C)CO)C(=O)CCCn2cc(nn2)CO[C@H]1CN(C)C(=O)Nc1ccc(C(F)(F)F)cc1" ?
true

The reported measurements were obtained from the antibiotic and cytotoxicity screens of Wong et al. (2023).
